System: 2Sb-muMax20 (muMax20 with two 1,3-bis(methyl)benzene Cys staples, A13C/A17C and Q88C/A92C, C-terminal Lys)
method-notes: PBM 8-mer E-score (E-score (rank enrichment, -0.5 to 0.5)); higher = stronger preferential binding
Over roughly 33,000 sequences, “E-score (rank enrichment, -0.5 to 0.5)” has its median near -0.0028; the highest 2% begin near 0.23. For the sample, the highest values were picked, then their nearest neighbours and some sequences at random.
// reported PBM 8-mer E-score per item
I only need the number, thanks.

Worked examples follow.
residue-codes | reported
GAAATGGC | 0.0246
AACCCCTA | 0.176
GATGATCC | -0.0779
ATGTCTGC | -0.0456
ATGCCATG | 0.026
GGGGTCAA | 0.109
AACCCCAA | 0.331
AAGGAATC | -0.0571
AAGGTACT | -0.0359
ATCACGCC | 0.0526

Request the reported PBM 8-mer E-score associated with `ACGATAAA`
0.014

So what does the record say about PBM 8-mer E-score for `GTACCCAA` ?
0.153

Reported PBM 8-mer E-score for `ATGCCATA` : what is it?
0.246

Entry under review: `ATCACGCA` . Reported PBM 8-mer E-score?
-0.037

# input sequence: `CCCACGCG` ; wanted: its PBM 8-mer E-score
0.221

Fill blank: measured PBM 8-mer E-score of the sequence `AACCCAAA` is ____.
0.0368

Fill in: PBM 8-mer E-score of `AACATCGA` is ___
0.0919

* * *

System: 2Sb-muMax20 (muMax20 with two 1,3-bis(methyl)benzene Cys staples, A13C/A17C and Q88C/A92C, C-terminal Lys)
method-notes: PBM 8-mer E-score (E-score (rank enrichment, -0.5 to 0.5)); higher = stronger preferential binding
Whole data set: some 33,000 sequences, median “E-score (rank enrichment, -0.5 to 0.5)” near -0.0028, cut for the highest 2% near 0.23. Many of the other results were omitted from the sample, so the highest values are more common in it than they were.
Note: every record was labeled by where its PBM 8-mer E-score sits among one = under -0.05, two = from -0.05 up to 0.06, three = 0.06 and over

Solved cases below.
residue-codes | class-name
CAAGGCAA | three
ACATATAG | three
ATCCACCG | one
CGGCACAG | one
CTACTTTA | two

Form field 'band' for `TACAACAA`
three

State the class of the sequence shown: `GACAACAC`
one

Which category does the recorded PBM 8-mer E-score put `AGCGAAGA` in?
one

Note: place this sequence into its band. Item: `GAAAGCTA`
two

In plain terms, what class is `AAAAGCTC` ?
two

Which band does `ACATATAT` fall in?
three

Band assignment needed for `AGTAGCAC` please.
two

Category of `GAAAGACC` , please.
two

Which band does `ATCAGAAT` fall in?
two

Please indicate the class for `CCTCCCGA` based on its PBM 8-mer E-score.
one

Which class holds `CATTTATA` ?
three

Band for `CGGTAAGA` ?
two

Which band does `ATTTTATA` fall in?
three

* * *

Test system: 2Sb-muMax20 (muMax20 with two 1,3-bis(methyl)benzene Cys staples, A13C/A17C and Q88C/A92C, C-terminal Lys)
method-notes: PBM 8-mer E-score (E-score (rank enrichment, -0.5 to 0.5)); higher = stronger preferential binding
The full ranking holds about 33,000 sequences; the median of “E-score (rank enrichment, -0.5 to 0.5)” is about -0.0028, and the highest 2% start at about 0.23. The list comes from a sample in which the highest values are over-represented; it also holds close analogues and randomly drawn sequences.
measured-parameter: PBM 8-mer E-score
The reply should be a number, written without any unit.

// known answers, use as guide
residue-codes | PBM 8-mer E-score
TATCATAA | 0.181
CTCTAGTA | 0.103
GCACCCCC | -0.265

Report PBM 8-mer E-score for `CATCATAA` please.
0.142

Which PBM 8-mer E-score reading was recorded for the sequence `CTAGTAAA` ?
0.11

Tell me the measured PBM 8-mer E-score of `CCCTGAGC` , please.
0.0168

* * *

System: 2Sb-muMax20 (muMax20 with two 1,3-bis(methyl)benzene Cys staples, A13C/A17C and Q88C/A92C, C-terminal Lys)
method-notes: PBM 8-mer E-score (E-score (rank enrichment, -0.5 to 0.5)); higher = stronger preferential binding
Whole data set: some 33,000 sequences, median “E-score (rank enrichment, -0.5 to 0.5)” near -0.0028, cut for the highest 2% near 0.23. The list comes from a sample in which the highest values are over-represented; it also holds close analogues and randomly drawn sequences.
measured-parameter: PBM 8-mer E-score

Reference set (2 entries):
residue-codes | reported
GGCCACAA | -0.0539
GGAGGGAC | -0.162

Which measured PBM 8-mer E-score value corresponds to `GACTCAGA` ?
-0.115

Please look up its PBM 8-mer E-score: `GGGGATCA`
0.0797

* * *

Tested on: 2Sb-muMax20 (muMax20 with two 1,3-bis(methyl)benzene Cys staples, A13C/A17C and Q88C/A92C, C-terminal Lys)
method-notes: PBM 8-mer E-score (E-score (rank enrichment, -0.5 to 0.5)); higher = stronger preferential binding
Over roughly 33,000 sequences, “E-score (rank enrichment, -0.5 to 0.5)” has its median near -0.0028; the highest 2% begin near 0.23. The sample as a whole holds a higher share of the highest values than the screen did.
Measured PBM 8-mer E-score, listed per entry.
Respond with the number and no other words.

residue-codes | reported
GTTTGAGA | -0.0465
GCACGGTA | -0.226

// PBM 8-mer E-score lookup, key: `GATGGCAA`
0.242

What does the data say about its PBM 8-mer E-score? Entry: `GCGGGGAA`
0.247

* * *

Recorded PBM 8-mer E-score, one value per entry.
System: 2Sb-muMax20 (muMax20 with two 1,3-bis(methyl)benzene Cys staples, A13C/A17C and Q88C/A92C, C-terminal Lys)
method-notes: PBM 8-mer E-score (E-score (rank enrichment, -0.5 to 0.5)); higher = stronger preferential binding
Over roughly 33,000 sequences, “E-score (rank enrichment, -0.5 to 0.5)” has its median near -0.0028; the highest 2% begin near 0.23. For the sample, the highest values were picked, then their nearest neighbours and some sequences at random.
A bare number is all that is needed in reply.

Illustrative cases are given below, each with its answer.
residue-codes | PBM 8-mer E-score
GGGATCCA | -0.0748
AGGGGTTA | 0.135

What PBM 8-mer E-score value was documented for this sequence, `GGTATATA` ?
0.235

What measured PBM 8-mer E-score goes with `ATGGGATA` ?
0.145

Item under review: `ACGCCCCA` . Reported PBM 8-mer E-score?
0.287

Find the recorded PBM 8-mer E-score belonging to `CACGCGGG` and report it.
0.115

What does the record list as PBM 8-mer E-score for `AAGGCACT` ?
0.0491

* * *

Test system: 2Sb-muMax20 (muMax20 with two 1,3-bis(methyl)benzene Cys staples, A13C/A17C and Q88C/A92C, C-terminal Lys)
method-notes: PBM 8-mer E-score (E-score (rank enrichment, -0.5 to 0.5)); higher = stronger preferential binding
In all, about 33,000 sequences were measured (“E-score (rank enrichment, -0.5 to 0.5)”: median about -0.0028, highest 2% from about 0.23 on). Only a selection was taken, and the highest values are over-represented in it overall.
Classification field: 1 = PBM 8-mer E-score at or over 0.09; 0 = PBM 8-mer E-score under 0.09.

Example results:
residue-codes | class-name
AATGGTAT | 1
CAATACAC | 0
ACATACAG | 1
CTATATAA | 1
TACAGAAA | 1
TGTTATAA | 1

Could you verify whether the entry `CACTATAA` shows PBM 8-mer E-score of no less than 0.09?
0

Confirm if PBM 8-mer E-score reported for the sequence `CAATACAG` is 0.09 or above.
0

* * *

Test system: 2Sb-muMax20 (muMax20 with two 1,3-bis(methyl)benzene Cys staples, A13C/A17C and Q88C/A92C, C-terminal Lys)
method-notes: PBM 8-mer E-score (E-score (rank enrichment, -0.5 to 0.5)); higher = stronger preferential binding
In all, about 33,000 sequences were measured (“E-score (rank enrichment, -0.5 to 0.5)”: median about -0.0028, highest 2% from about 0.23 on). The full list was thinned out, with the highest values kept by preference.
measured-parameter: PBM 8-mer E-score
Give your answer as a number; write no unit.

residue-codes | reported
ATAAGCTG | 0.0487
AACCCCAT | 0.156
AGAGCGTA | 0.00302
ATAACCTC | 0.175
ATAAGTTA | 0.241
AATACGGA | 0.0895

Item under review: `CCATGGGA` . Reported PBM 8-mer E-score?
0.123
